Data origin: the supplement of paper PMC11246515

Some sequences, each annotated with its measured total protein half-life in vivo.
Assay: total protein half-life in vivo (active degradation + dilution); higher = more stable protein
Settings: wild type E. coli NCM3722; growth: P-lim chemostat; doubling time 6 h

Reference set (2 entries):
sequence.content	readout.name	result
MAIALVTGGSRGIGRATALLLAQEGYTVAVNYQQNLHAAQEVMNLITQAGGKAFVLQADISDENQVVAMFTAIDQHDEPLAALVNNAGILFTQCTVENLTAERINRVLSTNVTGYFLCCREAVKRMALKNGGSGGAIVNVSSVASRLGSPGEYVDYAASKGAIDTLTTGLSLEVAAQGIRVNCVRPGFIYTEMHASGGEPGRVDRVKSNIPMQRGGQAEEVAQAIVWLLSDKASYVTGSFIDLAGGK	total protein half-life in vivo	6.41 h
MQLNKVLKGLMIALPVMAIAACSSNKNASNDGSEGMLGAGTGMDANGGNGNMSSEEQARLQMQQLQQNNIVYFDLDKYDIRSDFAQMLDAHANFLRSNPSYKVTVEGHADERGTPEYNISLGERRANAVKMYLQGKGVSADQISIVSYGKEKPAVLGHDEAAYSKNRRAVLVY [P0A912]	total protein half-life in vivo	5.9 h

IN: Record request: total protein half-life in vivo value, item MLKRVFLSLLVLIGLLLLTVLGLDRWMSWKTAPYIYDELQDLPYRQVGVVLGTAKYYRTGVINQYYRYRIQGAINAYNSGKVNYLLLSGDNALQSYNEPMTMRKDLIAAGVDPSDIVLDYAGFRTLDSIVRTRKVFDTNDFIIITQRFHCERALFIALHMGIQAQCYAVPSPKDMLSVRIREFAARFGALADLYIFKREPRFLGPLVPIPAMHQVPEDAQGYPAVTPEQLLELQKKQGK [P0AFY2]
OUT: 5.92 h

###

Assay: total protein half-life in vivo (active degradation + dilution); higher = more stable protein
Conditions: wild type E. coli NCM3722; growth: C-lim chemostat; doubling time 6 h
# total protein half-life in vivo >= 5 h gives Yes, anything below gives No

Field: example entries. Status: answers known.
sequence.content	category
MTTKKADYIWFNGEMVRWEDAKVHVMSHALHYGTSVFEGIRCYDSHKGPVVFRHREHMQRLHDSAKIYRFPVSQSIDELMEACRDVIRKNNLTSAYIRPLIFVGDVGMGVNPPAGYSTDVIIAAFPWGAYLGAEALEQGIDAMVSSWNRAAPNTIPTAAKAGGNYLSSLLVGSEARRHGYQEGIALDVNGYISEGAGENLFEVKDGVLFTPPFTSSALPGITRDAIIKLAKELGIEVREQVLSRESLYLADEVFMSGTAAEITPVRSVDGIQVGEGRCGPVTKRIQQAFFGLFTGETEDKWGWLDQVNQ [P0AB80]	Yes
MKEKTIIIVGGGQAAAMAAASLRQQGFTGELHLFSDERHLPYERPPLSKSMLLEDSPQLQQVLPANWWQENNVHLHSGVTIKTLGRDTRELVLTNGESWHWDQLFIATGAAARPLPLLDALGERCFTLRHAGDAARLREVLQPERSVVIIGAGTIGLELAASATQRRCKVTVIELAATVMGRNAPPPVQRYLLQRHQQAGVRILLNNAIEHVVDGEKVELTLQSGETLQADVVIYGIGISANEQLAREANLDTANGIVIDEACRTCDPAIFAGGDVAITRLDNGALHRCESWENANNQAQIAAAAMLGLPLPLLPPPWFWSDQYSDNLQFIGDMRGDDWLCRGNPETQKAIWFNLQNGVLIGAVTLNQGREIRPIRKWIQSGKTFDAKLLIDENIALKSL	No
MSKIKGNVKWFNESKGFGFITPEDGSKDVFVHFSAIQTNGFKTLAEGQRVEFEITNGAKGPSAANVIAL [P0A972]	No
MVELKEPLATLWRGKDAFAEVKKLNGEVFRELETRRTLRFELSGKSYFLKWHKGTTLKEIIKNLLSLRMPVLGADREWHAIHRLSDVGVDTMKGIGFGEKGLNPLTRASFIITEDLTPTISLEDYCADWAVNPPDIRVKRMLIARVATMVRKMHTAGINHRDCYICHFLLHLPFTGREDELKISVIDLHRAQIRAKVPRRWRDKDLIGLYFSSMNIGLTQRDIWRFMKVYFGMPLRKILSLEQNLLNMASVKAERIKERTQRKGL	Yes
MNALLSNPFKERLRKGEVQIGLWLSSTTAYMAEIAATSGYDWLLIDGEHAPNTIQDLYHQLQAVAPYASQPVIRPVEGSKPLIKQVLDIGAQTLLIPMVDTAEQARQVVSATRYPPYGERGVGASVARAARWGRIENYMAQVNDSLCLLVQVESKTALDNLDEILDVEGIDGVFIGPADLSASLGYPDNAGHPEVQRIIETSIRRIRAAGKAAGFLAVAPDMAQQCLAWGANFVAVGVDTMLYSDALDQRLAMFKSGKNGPRIKGSY	No
MKPSSSNSRSKGHAKARRKTREELDQEARDRKRQKKRRGHAPGSRAAGGNTTSGSKGQNAPKDPRIGSKTPIPLGVTEKVTKQHKPKSEKPMLSPQAELELLETDERLDALLERLEAGETLSAEEQSWVDAKLDRIDELMQKLGLSYDDDEEEEEDEKQEDMMRLLRGN [P0A8H6]	No

IN: Please indicate if the recorded total protein half-life in vivo for `MPLPDFRLIRLLPLAALVLTACSVTTPKGPGKSPDSPQWRQHQQDVRNLNQYQTRGAFAYISDQQKVYARFFWQQTGQDRYRLLLTNPLGSTELELNAQPGNVQLVDNKGQRYTADDAEEMIGKLTGMPIPLNSLRQWILGLPGDATDYKLDDQYRLSEITYSQNGKNWKVVYGGYDTKTQPAMPANMELTDGGQRIKLKMDNWIVK` meets or exceeds 5 h.
OUT: Yes

IN: Please indicate if the recorded total protein half-life in vivo for MMSQPAKVLLLYAHPESQDSVANRVLLKPATQLSNVTVHDLYAHYPDFFIDIPREQALLREHEVIVFQHPLYTYSCPALLKEWLDRVLSRGFASGPGGNQLAGKYWRSVITTGEPESAYRYDALNRYPMSDVLRPFELAAGMCRMHWLSPIIIYWARRQSAQELASHARAYGDWLANPLSPGGR [P0A756] meets or exceeds 5 h.
OUT: Yes
